target: Kir1.1 (ROMK1) (Homo sapiens); assay: Electrophysiology Assay (whole cell voltage clamp, IonWorks Quattro); conditions: Chinese hamster ovary cells stably expressing Kir1.1; fractional block at voltage step to 0 mV; 6 min compound incubation
parameter.measured: IC50 (nM)
Only the number, expressed in nM, is required.

Previously resolved entries follow.
{"compound.smiles": "CC1=C(N2N=CC3(CCN(C[C@H](O)c4ccc(-n5cnnn5)nc4)CC3)C2=O)COC1=O", "parameter.measured": "IC50", "unit.string": "nM", "numeric.value": 17}
{"compound.smiles": "CC1=C(N2NCC3(CCN(C[C@@H](O)c4ccc(-n5cnnn5)nc4)CC3)C2=O)COC1=O", "parameter.measured": "IC50", "unit.string": "nM", "numeric.value": 33}
{"compound.smiles": "CC1=C(N2NCC3(CCN(C[C@H](O)c4ccc5c(c4C)COC5=O)CC3)C2=O)COC1=O", "parameter.measured": "IC50", "unit.string": "nM", "numeric.value": 33}

Switching to the query record.
Give the reported IC50 for this molecule. CC1=C(N2NCC3(CCN(C[C@H](O)c4ccc(-n5cnnn5)nc4)CC3)C2=O)COC1=O 53

###

Target: ROMK (Kir1.1) channel (Homo sapiens, UniProt P48048)
Sequence (P48048 1-391): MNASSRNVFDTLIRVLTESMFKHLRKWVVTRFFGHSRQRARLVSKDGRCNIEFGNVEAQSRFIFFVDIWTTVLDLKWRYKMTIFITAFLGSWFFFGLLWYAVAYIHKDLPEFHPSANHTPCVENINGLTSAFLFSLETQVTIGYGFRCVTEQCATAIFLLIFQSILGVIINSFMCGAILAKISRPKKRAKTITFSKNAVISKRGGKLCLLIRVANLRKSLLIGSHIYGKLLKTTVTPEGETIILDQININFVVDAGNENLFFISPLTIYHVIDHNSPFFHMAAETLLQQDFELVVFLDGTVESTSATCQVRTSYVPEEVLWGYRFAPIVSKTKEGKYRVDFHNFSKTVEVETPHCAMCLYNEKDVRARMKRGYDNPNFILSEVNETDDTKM
Test: Thallium Flux Assay
Could you please mark condition met for values of IC50 below 60 nM and condition not met for values at or above it?

Example results:
{"molecule": "CC1=C(N2NCC3(CCN(C[C@H](O)c4ccc5c(c4C)COC5=O)CC3)C2=O)COC1=O [Example 1]", "experimental.system": "ROMK (Kir1.1) channel (Homo sapiens, UniProt P48048)", "label.class": "condition not met"}
{"molecule": "CC1=C(N2N=CC3(CCN(C[C@@H](O)c4ccc(-n5cnnn5)nc4)CC3)C2=O)COC1=O [Example 3B]", "experimental.system": "ROMK (Kir1.1) channel (Homo sapiens, UniProt P48048)", "label.class": "condition met"}

Item CC1=C(N2NCC3(CCN(C[C@@H](O)c4ccc(-n5cnnn5)nc4)CC3)C2=O)COC1=O [Example 2B] : IC50 beneath 60 nM, strictly? condition met

Item CC1=C(N2N=CC3(CCN(CC(O)c4ccc(-n5cnnn5)nn4)CC3)C2=O)COC1=O (single isomer, unassigned) [Example 4A] : IC50 beneath 60 nM, strictly? condition not met

Item CC1=C(N2N=CC3(CCN(C[C@H](O)c4ccc(-n5cnnn5)nc4)CC3)C2=O)COC1=O [Example 3A] : IC50 beneath 60 nM, strictly? condition met

Item CC1=C(N2NCC3(CCN(C[C@H](O)c4ccc(-n5cnnn5)nc4)CC3)C2=O)COC1=O [Example 2A] : IC50 beneath 60 nM, strictly? condition met

Item CC1=C(N2N=CC3(CCN(CCc4ccc(-n5cnnn5)nn4)CC3)C2=O)COC1=O [Example 5] : IC50 beneath 60 nM, strictly? condition met
